System: L-type calcium channel
Test: L-type calcium channel activity well-plate assay (IMR-32 cells, Ca-4 dye, FlexStation)
Assay type: cell-based, human
Conditions: 1 μM test cmpd
readout: CaL Plate Assay % blk (1 μM test cmpd) (%)
Just the number please, in %, no unit attached.

Prompt: Param readout = CaL Plate Assay % blk (1 μM test cmpd); param system = L-type calcium channel; param query = CC1=C(C(=O)O[C@H](C)c2ccccc2)C(c2cccc3ccccc23)n2nnnc2N1 (stereo partly shown) [PT-047] ; response: value
Completion: 24

Prompt: Entry CC1=C(C(=O)OCc2ccccc2)C(c2csc3ccccc23)n2nnnc2N1 (stereo not shown) [PT-042] , system L-type calcium channel: what CaL Plate Assay % blk (1 μM test cmpd) was measured?
Completion: 0

Prompt: API: value(readout=CaL Plate Assay % blk (1 μM test cmpd), system=L-type calcium channel) for record CC1=C(C(=O)OCC(F)(F)F)C(c2cccc3ccccc23)n2nnnc2N1 (stereo not shown) [PT-014]
Completion: 0

Prompt: Look up CaL Plate Assay % blk (1 μM test cmpd) with L-type calcium channel for this compound: CCOC(=O)C1=C(CC)NC(CC)=C(C(=O)OCC)C1c1ccc(Br)s1 [PT-181]
Completion: 8

Data provenance is patent US20090181986A1.
